Test system: NCI-H2087
Assay: relative viability (nuclei count vs DMSO), 5 days (fraction); higher = more cells survive
Details: first compound 2.53 µM
parameter: relative viability

Reference set (3 entries):
O=c1cc(-c2cccc3c2Sc2ccccc2S3)oc(N2CCOCC2)c1 + Cc1nc(Nc2ncc(C(=O)Nc3c(C)cccc3Cl)s2)cc(N2CCN(CCO)CC2)n1 [Dasatinib] (partner 0.075 µM) : 0.919
O=c1cc(-c2cccc3c2Sc2ccccc2S3)oc(N2CCOCC2)c1 + O=C(CCCCCCC(=O)Nc1ccccc1)NO [Vorinostat] (partner 1 µM) : 0.727
COc1nc(C)cnc1NS(=O)(=O)c1cccnc1-c1ccc(-c2nnco2)cc1 [Zibotentan] + CS(=O)(=O)N1CCN(Cc2cc3nc(-c4cccc5[nH]ncc45)nc(N4CCOCC4)c3s2)CC1 [Pictilisib] (partner 1 µM) : 0.954

What does the data say about its relative viability? Entry: O=c1cc(-c2cccc3c2Sc2ccccc2S3)oc(N2CCOCC2)c1 + C[C@]1(O)C[C@@H](c2nc(-c3ccc4ccc(-c5ccccc5)nc4c3)c3c(N)nccn32)C1 [Linsitinib] (partner 1 µM)
0.952
